- study_target: hERG (Homo sapiens, UniProt Q12809)
- Sequence (Q12809 whole entry): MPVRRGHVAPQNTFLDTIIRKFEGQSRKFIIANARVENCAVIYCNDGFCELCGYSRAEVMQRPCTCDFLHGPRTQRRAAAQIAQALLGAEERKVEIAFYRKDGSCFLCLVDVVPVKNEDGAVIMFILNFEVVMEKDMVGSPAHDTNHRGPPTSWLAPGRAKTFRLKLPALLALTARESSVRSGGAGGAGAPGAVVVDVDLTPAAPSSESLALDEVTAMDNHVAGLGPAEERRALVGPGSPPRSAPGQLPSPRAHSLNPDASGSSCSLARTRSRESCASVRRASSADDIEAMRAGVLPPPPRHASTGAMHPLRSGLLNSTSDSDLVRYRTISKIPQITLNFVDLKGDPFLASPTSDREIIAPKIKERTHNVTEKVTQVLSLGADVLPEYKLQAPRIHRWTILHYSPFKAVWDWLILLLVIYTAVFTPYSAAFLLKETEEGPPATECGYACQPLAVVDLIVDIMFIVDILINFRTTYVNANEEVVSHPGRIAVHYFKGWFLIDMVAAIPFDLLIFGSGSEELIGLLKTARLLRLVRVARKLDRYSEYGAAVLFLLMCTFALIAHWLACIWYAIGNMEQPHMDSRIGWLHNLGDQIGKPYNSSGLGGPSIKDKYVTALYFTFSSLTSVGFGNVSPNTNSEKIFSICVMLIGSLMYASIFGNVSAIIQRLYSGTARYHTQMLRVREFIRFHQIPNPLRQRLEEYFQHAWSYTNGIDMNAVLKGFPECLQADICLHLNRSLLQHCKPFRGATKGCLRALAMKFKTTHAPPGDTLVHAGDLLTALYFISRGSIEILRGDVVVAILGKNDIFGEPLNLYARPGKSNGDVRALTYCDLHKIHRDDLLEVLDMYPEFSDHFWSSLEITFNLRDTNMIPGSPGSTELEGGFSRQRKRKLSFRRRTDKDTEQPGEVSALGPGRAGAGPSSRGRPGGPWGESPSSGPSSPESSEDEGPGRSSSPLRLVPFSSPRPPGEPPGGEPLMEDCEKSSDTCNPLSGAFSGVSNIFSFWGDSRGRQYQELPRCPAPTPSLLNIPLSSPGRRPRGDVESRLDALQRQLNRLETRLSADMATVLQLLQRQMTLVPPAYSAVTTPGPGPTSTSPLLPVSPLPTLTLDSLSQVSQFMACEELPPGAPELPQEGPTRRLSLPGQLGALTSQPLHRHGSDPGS
- assay_notes: cell-based
metric: EC50

For this compound ( Cc1cc(N2CCc3cc(F)ccc3C2)cc(C)c1NC(=O)CC(C)(C)C [compound A] ), measured EC50 is > 30 µM

* * *

- study_target: UniProtKB Q9NR82
- assay_notes: Two-electrode voltage-clamp in Xenopus laevis oocytes, KCNQ5
metric: pEC50
Interpret pEC50 as the negative base-10 log of the concentration measured in mol/L.

The compound identified as Cc1cc(N2CCc3cc(F)ccc3C2)cc(C)c1NC(=O)CC(C)(C)C [compound A] registered its pEC50 at 6.46

* * *

- study_target: KCNQ2/3 (Homo sapiens, UniProt O43525+O43526)
- assay_notes: Two-electrode voltage-clamp in Xenopus laevis oocytes, KCNQ2/3
metric: pEC50
Quick note: pEC50 means taking -log10 of the concentration in moles per liter.

The measured pEC50 associated with Cc1cc(N2CCc3cc(F)ccc3C2)cc(C)c1NC(=O)CC(C)(C)C [compound A] reads 6.46

* * *

Kindly state pEC50 for each of the entries shown.
- study_target: KCNQ2 channels (Homo sapiens, UniProt O43526)
- Sequence (O43526 whole entry): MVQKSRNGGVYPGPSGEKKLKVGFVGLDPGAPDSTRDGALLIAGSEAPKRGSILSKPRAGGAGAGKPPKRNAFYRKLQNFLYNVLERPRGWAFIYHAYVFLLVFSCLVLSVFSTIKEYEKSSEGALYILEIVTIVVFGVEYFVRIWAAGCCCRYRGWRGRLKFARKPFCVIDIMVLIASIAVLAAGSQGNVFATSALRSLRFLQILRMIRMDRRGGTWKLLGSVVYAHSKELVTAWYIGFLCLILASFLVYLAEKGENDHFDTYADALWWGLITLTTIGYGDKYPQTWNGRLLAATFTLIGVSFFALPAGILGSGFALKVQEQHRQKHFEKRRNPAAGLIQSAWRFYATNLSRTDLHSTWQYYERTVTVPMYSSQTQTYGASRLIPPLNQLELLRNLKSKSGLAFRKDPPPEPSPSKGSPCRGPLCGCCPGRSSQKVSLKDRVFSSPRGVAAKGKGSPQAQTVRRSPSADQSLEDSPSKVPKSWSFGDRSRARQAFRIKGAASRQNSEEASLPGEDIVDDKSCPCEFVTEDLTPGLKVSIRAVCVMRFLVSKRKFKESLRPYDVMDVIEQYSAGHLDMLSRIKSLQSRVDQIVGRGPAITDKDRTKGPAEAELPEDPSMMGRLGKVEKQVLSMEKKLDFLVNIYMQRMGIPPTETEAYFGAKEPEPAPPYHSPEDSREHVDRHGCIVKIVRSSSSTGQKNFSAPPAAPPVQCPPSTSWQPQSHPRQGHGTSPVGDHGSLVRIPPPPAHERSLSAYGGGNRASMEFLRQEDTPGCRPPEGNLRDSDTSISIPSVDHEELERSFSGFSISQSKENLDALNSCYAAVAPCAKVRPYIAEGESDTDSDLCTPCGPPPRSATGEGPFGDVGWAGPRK
- assay_notes: Potassium ion efflux, KCNQ2 channels expressed in CHO cells
As a rule, pEC50 stands for the negative log10 of the concentration, concentration in M.

Field pEC50 (KCNQ2 channels (Homo sapiens, UniProt O43526)), entry CCOC(=O)Nc1ccc(NCc2ccc(F)cc2)cc1N [retigabine, reference compound] : 6.54

Case Cc1cc(N2CCc3cc(F)ccc3C2)cc(C)c1NC(=O)CC(C)(C)C , KCNQ2 channels (Homo sapiens, UniProt O43526), pEC50 recorded as 7.96

* * *

- assay_notes: Open field test (acute toxicity)
- condition_parameters: Sprague-Dawley, in vivo, oral, rat, read-out: TD50, motor impairment
metric: TD50 at 1 min

Recorded result, Cc1cc(N2CCc3cc(F)ccc3C2)cc(C)c1NC(=O)CC(C)(C)C , TD50 at 1 min: > 5 mg/kg
